These measurements were taken from the supplement of paper PMC6555819.

Test system: LXRb:RXRa (NR concentration 270 nM, RXRa partner concentration 90 nM)
Assay: PBM binding z-score (relative to random genomic background probes); higher = stronger binding; sequences stand for … in GC…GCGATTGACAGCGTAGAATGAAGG
Tick yes if PBM binding z-score is 0.4 or greater. Tick no if PBM binding z-score is less than 0.4.

Check if PBM binding z-score >= 0.4 (inclusive). Item: GATACAGGGTAAGCTAGAGGCCAGAGTATGGAAA no

hey, is PBM binding z-score for this one >= 0.4? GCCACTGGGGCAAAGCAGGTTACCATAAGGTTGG no

State whether the measured PBM binding z-score reaches 0.4, counting equality as reaching it, for ACTATTAGTTGACTTAGTGCAACCGATACGACGC no

Reported PBM binding z-score at or above 0.4? GCTACAGGGTCAGCTAGAGGCCAGAGTATGGAAA yes

hey, is PBM binding z-score for this one >= 0.4? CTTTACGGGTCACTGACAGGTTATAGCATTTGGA yes

Record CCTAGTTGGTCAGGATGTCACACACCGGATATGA ; criterion: PBM binding z-score no lower than 0.4. Met? no

Identify whether the reported PBM binding z-score of the following sequence is 0.4 or greater: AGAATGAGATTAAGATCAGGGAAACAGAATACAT no

Is reported PBM binding z-score greater than or equal to 0.4 here: GCTGCTAGGTCAGGTTGGTCAGCGAACGGGTACG yes

Does the reported PBM binding z-score for CCTAGCAGTCCAATCTGGGTCACTCAAGGCTTGA fall at or above the 0.4 mark? yes

Kindly determine if PBM binding z-score recorded for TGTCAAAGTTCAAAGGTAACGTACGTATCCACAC is above or exactly 0.4. yes

Reported PBM binding z-score reaches at least 0.4 for CCAGAAAGGTGAGAAGGTAACTCAGCCTCGATTA ? yes

----------
Test system: PPARg DBDmut:RXRa IVT, anti-PPARg (DBD mutation: PPARg1 K132A/R137A, NR concentration 270 nM, RXRa partner concentration 90 nM)
Test: PBM binding z-score (relative to random genomic background probes); higher = stronger binding; sequences stand for … in GC…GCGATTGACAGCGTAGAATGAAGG
measurement.label: PBM binding z-score
Answer with the value's number alone.

Some entries whose results are on file:
TCATATAGGTAACACAGGTGAAAGTCGGCATCTA	0.968
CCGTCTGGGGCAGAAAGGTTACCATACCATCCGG	-1.18
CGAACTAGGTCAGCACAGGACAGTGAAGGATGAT	0.871
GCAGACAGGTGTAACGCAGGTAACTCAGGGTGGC	-0.91
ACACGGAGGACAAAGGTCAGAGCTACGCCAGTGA	0.472
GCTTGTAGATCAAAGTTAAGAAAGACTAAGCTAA	-0.419
ATACCAAAGTGATCGTGAGGTCGTTGATACTAAC	0.693
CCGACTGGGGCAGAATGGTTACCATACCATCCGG	-0.354

// next entry
Kindly note the recorded PBM binding z-score for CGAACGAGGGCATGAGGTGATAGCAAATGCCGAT , which is 0.644

----------
Test system: RARb:RXRa (NR concentration 270 nM, RXRa partner concentration 90 nM)
Assay: PBM binding z-score (relative to random genomic background probes); higher = stronger binding; sequences stand for … in GC…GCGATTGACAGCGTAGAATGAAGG
Catalogue of PBM binding z-score readings, one per entry.
Quick one: just the number, no unit, thanks!

Check out these entries, answers already filled in.
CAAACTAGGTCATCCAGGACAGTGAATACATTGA	3.84
GCTGCTAGGTCAGGTTGTTCAGCTAACGGGTACG	3.15
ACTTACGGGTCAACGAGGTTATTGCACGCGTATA	4.19
TCAGACAGGTGAAGGTAACTCTGGTACGCAGTCG	1.07
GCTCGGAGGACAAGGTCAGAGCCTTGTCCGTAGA	3.49

GET /value?item= TCGAGTAGGATAGGGGCATTCAGAATGGCGTCGA &field=PBM binding z-score returns 0.225

PBM binding z-score recorded for this sequence, CCTTACGAGTCAAGGTTATAGCACGGGTGGTACG , is 1.07

Entry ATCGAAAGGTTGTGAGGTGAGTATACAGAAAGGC , PBM binding z-score reported as 1.45

The sequence listed as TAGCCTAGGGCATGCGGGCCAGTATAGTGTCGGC has a reported PBM binding z-score of 0.881

Short answer for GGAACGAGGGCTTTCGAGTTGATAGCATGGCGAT : PBM binding z-score was -0.36

Noted for CAAACTGGGTCAAGAGGTCAAAGTCCGCTTCCCG : its PBM binding z-score reads 5.29

Looking up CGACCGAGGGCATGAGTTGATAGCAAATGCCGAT , I found its PBM binding z-score recorded as 2.11
